Method Description: Pharmacokinetic study of LGZGD components in plasma of normal and NAFLD rats after oral administration (UPLC-MS/MS)
Format: in vivo, Male Sprague–Dawley rats
Condition Set: male, Sprague-Dawley, rat, plasma, po, 23 g/kg, Model (NAFLD) group, male SD rats, oral LGZGD extract 23 g/kg, plasma, mean ± SD, n = 6
Quantity Measured: AUC(0-inf)
Please provide the amount together with its unit, number first.

Below, 2 molecules whose answers are already recorded.
CC1(C)[C@@H](O)CC[C@]2(C)[C@H]3C(=O)C=C4[C@@H]5C[C@@](C)(C(=O)O)CC[C@]5(C)CC[C@@]4(C)[C@]3(C)CC[C@@H]12 [Glycyrrhetinic acid, glycyrrhetinic acid] ... 26200 ng·h/mL
CC1(C)[C@@H](O[C@H]2O[C@H](C(=O)O)[C@@H](O)[C@H](O)[C@H]2O[C@@H]2O[C@H](C(=O)O)[C@@H](O)[C@H](O)[C@H]2O)CC[C@]2(C)[C@H]3C(=O)C=C4[C@@H]5C[C@@](C)(C(=O)O)CC[C@]5(C)CC[C@@]4(C)[C@]3(C)CC[C@@H]12 [Glycyrrhizic acid, glycyrrhizic acid] ... 40800 ng·h/mL

Here is the next item to consider.
Input line: AUC(0-inf) lookup needed for C=C(CC[C@@H](C(=O)O)[C@H]1[C@H](O)C[C@@]2(C)C3=CC[C@H]4C(C)(C)[C@@H](O)CC[C@]4(C)C3=CC[C@]12C)C(C)C [Dehydrotumulosic acid, dehydrotumulosic acid] , thanks.
Output line: 43.5 ng·h/mL

Reference source for all entries: paper PMC10192568
